- Tested on: KV channel
- experiment.summary: Binding KV channel (aa)
- Set-up: species or system rat
A collection of compounds and their measured % Inhibition of Control Specific Binding @ 10 μM
Reply with just the number (in %).

For reference, reported % Inhibition of Control Specific Binding @ 10 μM for `CNC(=O)c1ccc(N2C(=O)N(c3ccc(C#N)c(C(F)(F)F)c3)C(=O)C2(C)C)cc1F` stands at −4

Entry `CC1(C)C(=O)N(c2ccc(C#N)c(C(F)(F)F)c2)C(=O)N1c1ccc(C(N)=O)c(F)c1` — recorded % Inhibition of Control Specific Binding @ 10 μM = −2

// recorded % Inhibition of Control Specific Binding @ 10 μM for `CC1(C)C(=O)N(c2ccc(C#N)c(C(F)(F)F)c2)C(=S)N1c1ccc(C(=O)O)c(F)c1` : −2

Reported % Inhibition of Control Specific Binding @ 10 μM of `CC1(C)C(=O)N(c2ccc(C#N)c(C(F)(F)F)c2)C(=S)N1c1ccc(C(N)=O)c(F)c1` : −3

* * *

- experiment.summary: [14C]RD162′ radio-HPLC metabolite profile in Pooled Rat Plasma
- Format: in vivo, Sprague Dawley rats
- measurement.parameters: [14C]RD162′ 100 mg/kg/day oral, day 7, 4 h
Readings of Peak Area (mV) for the listed compounds
Form entry: value (mV) — number only.

Here is how some compounds turned out for Peak Area (mV).
CC1(C)C(=O)N(c2ccc(C#N)c(C(F)(F)F)c2)C(=S)N1c1ccc(C(N)=O)c(F)c1	288
CC1(C)C(=O)N(c2ccc(C#N)c(C(F)(F)F)c2)C(=S)N1c1ccc(C(=O)O)c(F)c1	589
CC1(C)C(=O)N(c2ccc(C#N)c(C(F)(F)F)c2)C(=O)N1c1ccc(C(N)=O)c(F)c1	426

Peak Area (mV) for `CC1(C)C(=O)N(c2ccc(C#N)c(C(F)(F)F)c2)C(=O)N1c1ccc(C(=O)O)c(F)c1` is 308

Measured Peak Area (mV), `CNC(=O)c1ccc(N2C(=O)N(c3ccc(C#N)c(C(F)(F)F)c3)C(=O)C2(C)C)cc1F` : 452

* * *

- target.system: Adenosine A3 (h) (Homo sapiens, UniProt P0DMS8)
- Construct: expressed in transfected cells; host or cells: HEK-293 cells
- Sequence (P0DMS8 whole entry): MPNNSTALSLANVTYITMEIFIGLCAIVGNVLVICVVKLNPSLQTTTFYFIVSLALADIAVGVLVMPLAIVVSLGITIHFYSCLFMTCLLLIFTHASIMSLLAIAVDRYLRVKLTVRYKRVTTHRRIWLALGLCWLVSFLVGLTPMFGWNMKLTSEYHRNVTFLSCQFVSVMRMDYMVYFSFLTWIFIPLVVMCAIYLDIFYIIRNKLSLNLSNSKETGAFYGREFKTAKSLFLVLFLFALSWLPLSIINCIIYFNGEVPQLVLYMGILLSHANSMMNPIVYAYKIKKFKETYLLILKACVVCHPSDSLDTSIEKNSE
- experiment.summary: Binding A3 (h) (ag)
- measurement.parameters: read-out: % Inhibition of Control Specific Binding @ 10 μM
- Protocol: Radioligand binding assay methods utilized to measure the activity of compounds of the invention will be familiar to those skilled in the art. […] Analysis and Expression of Results: Compounds of the invention were tested in the biochemical assays and percent inhibition of specific binding was determined. The specific ligand binding to the receptors is defined as the difference between the total binding and the nonspecific binding determined in the presence of an excess of unlabelled ligand. […]
readout: inhibition at 10 µM (%)
// return numeric value only (unit: %, not printed)

CNC(=O)c1ccc(N2C(=O)N(c3ccc(C#N)c(C(F)(F)F)c3)C(=O)C2(C)C)cc1F [(MIV)]	50
CC1(C)C(=O)N(c2ccc(C#N)c(C(F)(F)F)c2)C(=S)N1c1ccc(C(N)=O)c(F)c1 [(MII)]	17
CC1(C)C(=O)N(c2ccc(C#N)c(C(F)(F)F)c2)C(=O)N1c1ccc(C(N)=O)c(F)c1 [(MIII)]	11

response.value for CC1(C)C(=O)N(c2ccc(C#N)c(C(F)(F)F)c2)C(=S)N1c1ccc(C(=O)O)c(F)c1 [(MI)] (field: inhibition at 10 µM) = 69

* * *

- target.system: MAO-A (h) (Homo sapiens, UniProt P21397)
- Construct: human placenta; from tissue; host or cells: human placenta
- Sequence (P21397 whole entry): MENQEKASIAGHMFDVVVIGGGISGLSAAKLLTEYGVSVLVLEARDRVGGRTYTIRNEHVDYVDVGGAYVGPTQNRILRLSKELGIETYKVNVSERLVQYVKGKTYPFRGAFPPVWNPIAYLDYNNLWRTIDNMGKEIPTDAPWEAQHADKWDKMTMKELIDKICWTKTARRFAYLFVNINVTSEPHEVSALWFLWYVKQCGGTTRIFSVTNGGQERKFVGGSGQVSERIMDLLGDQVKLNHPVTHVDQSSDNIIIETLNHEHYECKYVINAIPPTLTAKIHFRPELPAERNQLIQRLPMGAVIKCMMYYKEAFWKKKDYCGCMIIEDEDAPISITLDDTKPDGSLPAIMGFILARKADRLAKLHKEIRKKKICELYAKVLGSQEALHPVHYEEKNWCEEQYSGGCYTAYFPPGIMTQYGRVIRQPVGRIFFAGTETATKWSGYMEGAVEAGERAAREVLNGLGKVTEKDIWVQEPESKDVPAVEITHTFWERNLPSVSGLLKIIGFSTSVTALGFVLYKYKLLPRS
- experiment.summary: Enzyme assay MAO-A (h)
- Format: biochemical
- measurement.parameters: read-out: % Inhibition of Control Values @ 10 μM
readout: inhibition at 10 µM (%)
Give just the number in %; leave the unit off.

Use these answered entries as a reference point.
CNC(=O)c1ccc(N2C(=O)N(c3ccc(C#N)c(C(F)(F)F)c3)C(=O)C2(C)C)cc1F	11
CC1(C)C(=O)N(c2ccc(C#N)c(C(F)(F)F)c2)C(=O)N1c1ccc(C(N)=O)c(F)c1	14
CC1(C)C(=O)N(c2ccc(C#N)c(C(F)(F)F)c2)C(=S)N1c1ccc(C(N)=O)c(F)c1	0

Then there is this compound:
The compound `CC1(C)C(=O)N(c2ccc(C#N)c(C(F)(F)F)c2)C(=S)N1c1ccc(C(=O)O)c(F)c1` , when measured on MAO-A (h) (Homo sapiens, UniProt P21397), yielded inhibition at 10 µM of -5
